TEST_TARGET: HIV-1 reverse transcriptase (RT) (HIV-1, UniProt P04585;P04585 P04585:588-1147,P04585:588-1027)
ASSAY_METHOD_TEXT: EMSA; 50 mM KCl, 25 mM NaCl, 5% glycerol, BSA, 25 C; processed RNA with flanks
ASSAY_CONDITIONS: pseudoknot-like potential stated for some aptamers
RESULT_TYPE: pKd
Here pKd is given on a logarithmic scale as minus log10 of the concentration in mol/L.

Task: Requested field: pKd. Item: aptamer 70.8,13 (ssRNA) RNA: AGCUCGAGCUCGAAUUCAAAGAGAUCUGGCAGUGUCACAACCAGGAAAAAGACACGACGAACGGGCCCGGAUCCGUC
Output: 7.57
